Property: pKd; scope: individual binders
# target.under.test: NS3 (nonstructural protein 3, protease-helicase) (Hepatitis C virus genotype 1b (con1b), UniProt Q9WMX2 1027-1657)
# Sequence (Q9WMX2 1027-1657): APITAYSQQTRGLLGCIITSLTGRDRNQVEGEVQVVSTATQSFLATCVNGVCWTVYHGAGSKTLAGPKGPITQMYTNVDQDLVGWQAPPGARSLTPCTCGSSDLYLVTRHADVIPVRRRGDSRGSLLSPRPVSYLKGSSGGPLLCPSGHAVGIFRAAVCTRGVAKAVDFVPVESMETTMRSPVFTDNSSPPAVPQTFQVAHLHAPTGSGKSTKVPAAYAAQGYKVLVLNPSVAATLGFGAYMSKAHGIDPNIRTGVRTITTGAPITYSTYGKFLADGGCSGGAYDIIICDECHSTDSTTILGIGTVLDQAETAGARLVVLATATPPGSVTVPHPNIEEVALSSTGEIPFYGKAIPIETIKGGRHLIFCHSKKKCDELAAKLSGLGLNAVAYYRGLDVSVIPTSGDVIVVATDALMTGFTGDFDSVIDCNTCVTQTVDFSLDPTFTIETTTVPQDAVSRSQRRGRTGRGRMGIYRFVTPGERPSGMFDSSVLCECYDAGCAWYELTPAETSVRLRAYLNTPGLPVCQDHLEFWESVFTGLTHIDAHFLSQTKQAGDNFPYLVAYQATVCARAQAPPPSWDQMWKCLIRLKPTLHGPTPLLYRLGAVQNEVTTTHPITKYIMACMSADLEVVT
# assay.procedure: fluorescence anisotropy; 100 mM KCl; 6 nM RNA; 25 mM MOPS pH 6.5, 100 mM KCl, 0.1 mM EDTA, 2 mM beta-mercaptoethanol, 0.1 mg/ml BSA, 37 C, 30 min; RNA 2 nM unless stated, folded in 100 mM KCl
# run.parameters: protein: recombinant; label: 3'-6FAM; parallel G4 with 3' overhang 20 nt
Please report pKd as the negative decimal logarithm of the molar concentration, giving only the number.

binder	pKd
AAGGGCUGCGGGUGGGCAGGGAAAAAAAAAAAAAAAAAAAA (structured_RNA) [HCVG4-A20]	7.96

# context switch: different binder, same pKd
Field pKd (entry AAGGGUGGGUGGGUGGGAAAAAAAAAAAAAAAAAAAA (structured_RNA) [NONHCVG4-A20] ) reads 7.92

The measurements presented in this section are drawn from paper PMC9582721.
